The molecules listed here are annotated with their IC50.
# Target of assay: Androgen receptor (Homo sapiens)
# Sequence (P10275 whole entry): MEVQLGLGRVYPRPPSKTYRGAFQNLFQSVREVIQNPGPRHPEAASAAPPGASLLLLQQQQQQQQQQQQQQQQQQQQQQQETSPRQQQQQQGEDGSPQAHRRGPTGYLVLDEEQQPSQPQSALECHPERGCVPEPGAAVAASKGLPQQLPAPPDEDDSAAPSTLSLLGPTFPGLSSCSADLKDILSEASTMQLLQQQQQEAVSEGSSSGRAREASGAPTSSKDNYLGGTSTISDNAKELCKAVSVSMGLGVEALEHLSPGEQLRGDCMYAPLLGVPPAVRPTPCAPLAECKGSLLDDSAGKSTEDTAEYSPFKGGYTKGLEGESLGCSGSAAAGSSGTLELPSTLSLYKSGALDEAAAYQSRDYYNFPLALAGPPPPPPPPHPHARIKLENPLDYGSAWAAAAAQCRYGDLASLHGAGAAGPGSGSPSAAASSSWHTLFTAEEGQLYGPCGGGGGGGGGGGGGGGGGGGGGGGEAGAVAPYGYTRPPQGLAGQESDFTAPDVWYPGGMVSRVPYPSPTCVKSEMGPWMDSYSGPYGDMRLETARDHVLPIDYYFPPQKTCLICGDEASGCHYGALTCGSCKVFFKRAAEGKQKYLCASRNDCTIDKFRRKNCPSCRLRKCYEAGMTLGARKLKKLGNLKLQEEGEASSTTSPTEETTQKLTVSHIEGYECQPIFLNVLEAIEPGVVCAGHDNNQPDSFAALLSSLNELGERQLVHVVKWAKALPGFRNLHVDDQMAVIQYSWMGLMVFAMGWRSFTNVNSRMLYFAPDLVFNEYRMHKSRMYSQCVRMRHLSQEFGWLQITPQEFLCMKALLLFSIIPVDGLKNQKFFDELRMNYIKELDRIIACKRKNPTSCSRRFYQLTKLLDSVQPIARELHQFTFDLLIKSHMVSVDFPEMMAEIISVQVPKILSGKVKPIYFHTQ
Give the value in µM but do not write µM after it.

Example entries and their recorded answers appear below.
Molecule	IC50, µM
Fc1ccc(C2=NOC3CCCC23)cc1C(F)(F)F (racemic)	1.48
Fc1ccc(C2=NOC3CCCCC23)c(C(F)(F)F)c1 (stereo unspecified)	0.977
O=[N+]([O-])c1ccc(C2=NOC3CCCCCCC23)c(C(F)(F)F)c1 (stereo unspecified)	0.776
N#Cc1ccc(C2=NOC3CCCCC23)c(C(F)(F)F)c1 (stereo unspecified)	1.15
N#Cc1ccc(C2=NOC3CCCCCCC23)c(C(F)(F)F)c1 (stereo unspecified)	2

Okay, now this molecule:
(Q) GET /values?readout=IC50&item= O=[N+]([O-])c1ccc(C2=NOC3CCCC23)c(C(F)(F)F)c1 (racemic)
(A) 0.269

====

# Target of assay: Androgen receptor (Homo sapiens)
# Method notes: Agonist activity at wild type human androgen receptor expressed in COS-1 cells co-transfected with pSG5 assessed as effect on testosterone induced luciferase activity at 10 uM after 18 hrs relative untreated control
# Type: functional, cell-based
Activity calls are given as the source filed them. How the calls were made is not given here.
Measure: Activity

Example entries and their recorded answers appear below.
Compound	Activity
Fc1ccc(C2=NOC3CCCC23)c(C(F)(F)F)c1 (cis isomer; 5g)	inactive
O=[N+]([O-])c1ccc(C2=NOC3CCCCCCC23)c(C(F)(F)F)c1 (centres undefined)	inactive
O=[N+]([O-])c1ccc(C2=NOC3CCCCCCC23)c(C(F)(F)F)c1 (cis isomer)	inactive
Clc1cccc(C2=NOC3CCCCC23)c1 (cis isomer; cis)	inactive
Clc1ccccc1C1=NOC2CCCCC12 (cis isomer)	inactive
c1ccc2c(C3=NOC4CCCCC34)cccc2c1 (centres undefined)	inactive
c1ccc(C2=NOC3CCCCC23)cc1 (centres undefined)	inactive
N#Cc1ccc(C2=NOC3CCCC23)c(C(F)(F)F)c1 (racemic)	inactive

(Q) GET /values?readout=Activity&item= O=[N+]([O-])c1ccc(C2=NO[C@H]3CCCC[C@@H]23)c(C(F)(F)F)c1
(A) inactive
